# Test system: Platelet-derived growth factor receptor alpha (Homo sapiens), P16234 [D842V]
# Sequence (P16234 whole entry D842V): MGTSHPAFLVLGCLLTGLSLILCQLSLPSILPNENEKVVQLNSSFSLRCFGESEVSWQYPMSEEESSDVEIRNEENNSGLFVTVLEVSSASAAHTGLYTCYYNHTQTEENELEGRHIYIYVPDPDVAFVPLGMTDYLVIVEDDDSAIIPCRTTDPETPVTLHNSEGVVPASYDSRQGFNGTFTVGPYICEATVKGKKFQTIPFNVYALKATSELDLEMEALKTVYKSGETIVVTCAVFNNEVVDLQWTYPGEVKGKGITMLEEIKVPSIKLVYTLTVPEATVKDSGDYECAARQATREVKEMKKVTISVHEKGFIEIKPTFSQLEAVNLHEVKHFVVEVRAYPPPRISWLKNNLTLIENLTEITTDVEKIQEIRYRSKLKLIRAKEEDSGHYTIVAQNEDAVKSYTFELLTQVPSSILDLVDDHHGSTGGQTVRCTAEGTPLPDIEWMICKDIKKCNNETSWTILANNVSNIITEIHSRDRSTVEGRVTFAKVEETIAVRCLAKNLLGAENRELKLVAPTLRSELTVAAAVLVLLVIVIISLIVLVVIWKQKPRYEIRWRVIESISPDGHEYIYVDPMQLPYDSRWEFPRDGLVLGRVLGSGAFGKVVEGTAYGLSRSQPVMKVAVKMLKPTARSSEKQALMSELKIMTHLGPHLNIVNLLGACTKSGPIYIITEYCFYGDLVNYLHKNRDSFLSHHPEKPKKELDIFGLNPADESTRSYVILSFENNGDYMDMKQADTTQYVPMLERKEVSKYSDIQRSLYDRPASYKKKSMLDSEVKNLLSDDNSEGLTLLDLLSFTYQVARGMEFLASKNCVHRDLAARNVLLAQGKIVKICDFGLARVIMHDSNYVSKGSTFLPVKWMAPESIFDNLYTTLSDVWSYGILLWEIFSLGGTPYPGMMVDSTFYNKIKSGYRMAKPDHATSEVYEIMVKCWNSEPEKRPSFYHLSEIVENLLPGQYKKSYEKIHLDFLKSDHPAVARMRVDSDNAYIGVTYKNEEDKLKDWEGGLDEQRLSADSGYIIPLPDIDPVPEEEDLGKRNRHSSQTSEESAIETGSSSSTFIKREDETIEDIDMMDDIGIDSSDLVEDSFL
# Condition info: at 1 µM
Measured inhibition values are reported for all entries that follow.
Only the number, expressed in %, is required.

Record excerpt, results attached:
Problem: Please list inhibition recorded for the molecule CN1CCC(C(=O)Nc2n[nH]c3nnc(-c4ccccc4)cc23)CC1
Solution: 3.2

Problem: Please list inhibition recorded for the molecule COc1ccc(-c2ccncc2)cc1C(N)=O
Solution: 4.35

Problem: Please list inhibition recorded for the molecule COC(=O)Nc1nc2cc(Oc3ccc(NC(=O)Nc4cccc(C(=O)O)c4)cc3)ccc2[nH]1
Solution: 1.56

Problem: Please list inhibition recorded for the molecule N#Cc1c(NC(=O)c2cccc3ccccc23)sc2c1CCCC2
Solution: 4.85

Problem: Please list inhibition recorded for the molecule Cc1ccc(NC(=O)c2ccnc(N3CCCC3)c2)cc1-c1ccc(C(=O)NCC2CC2)cc1
Solution: 5.68

# input for lookup
Problem: Please list inhibition recorded for the molecule COc1ccc(COc2ccc(Cc3cnc(N)nc3N)cc2OC)cc1
Solution: 1.88
